The reported measurements were obtained from PubChem BioAssay (EPA / NIEHS).

Assay: CCTE_Shafer_MEA_acute_burst_number: CCTE's Neural Acute Assay for Single-Electrode Bursts, Shafer Lab (AID 2284013)
Activity calls are given as the source filed them. The calls were made as follows: active = hit-call score of the fitted dose curve at least 0.9, where 1 is the maximum; inactive = score below 0.9.
Classes used: y (active), n (inactive)

[[record]]
compound = "CC1(C)C(C=C(Cl)Cl)C1C(=O)OC(C#N)c1cccc(Oc2ccccc2)c1 (stereo not drawn)"
label = "n"

[[record]]
compound = "COC(=O)N(C(=O)N1CO[C@@]2(C(=O)OC)Cc3cc(Cl)ccc3C2=N1)c1ccc(OC(F)(F)F)cc1"
label = "n"

[[record]]
compound = "Cc1ccc(N=CN(C)C=Nc2ccc(C)cc2C)c(C)c1"
label = "n"

[[record]]
compound = "CC1(C)CCC(=Cc2ccc(Cl)cc2)C1(O)Cn1cncn1 (stereo not drawn)"
label = "n"

[[record]]
compound = "CC(C)N1C(=O)c2ccccc2NS1(=O)=O"
label = "n"

[[record]]
compound = "OC(c1ccc(Cl)cc1)(c1ccc(Cl)cc1)C(Cl)(Cl)Cl"
label = "y"

[[record]]
compound = "CC(C)=CC1C(C(=O)OCc2coc(Cc3ccccc3)c2)C1(C)C (stereo not drawn)"
label = "n"

[[record]]
compound = "CC(C)N1C(=O)N(c2ccccc2)CSC1=NC(C)(C)C"
label = "y"

[[record]]
compound = "CCOc1nc(F)cc2nc(S(=O)(=O)Nc3c(Cl)cccc3Cl)nn12"
label = "n"

[[record]]
compound = "CN/C(=N\\[N+](=O)[O-])NCc1cnc(Cl)s1"
label = "n"

[[record]]
compound = "CCOc1cc(C(C)(C)C)ccc1C1COC(c2c(F)cccc2F)=N1 (stereo not drawn)"
label = "y"

[[record]]
compound = "CCOP(=O)(OCC)Oc1nc(Cl)c(Cl)cc1Cl"
label = "n"

[[record]]
compound = "CCCN(CC)CC1COC2(CCC(C(C)(C)C)CC2)O1 (stereo not drawn)"
label = "n"

[[record]]
compound = "N#CN=C1SCCN1Cc1ccc(Cl)nc1"
label = "n"

[[record]]
compound = "CCCC(=NOCC)C1=C(O)CC(CC(C)SCC)CC1=O (stereo not drawn)"
label = "n"

[[record]]
compound = "C=C(C)CN(CC)c1c([N+](=O)[O-])cc(C(F)(F)F)cc1[N+](=O)[O-]"
label = "n"

[[record]]
compound = "Cc1nc(N(C)C)nc(OC(=O)N(C)C)c1C"
label = "n"

[[record]]
compound = "N#Cc1c[nH]cc1-c1cccc2c1OC(F)(F)O2"
label = "n"


----------
Assay: APR_HepG2_CellCycleArrest_24hr: Apredica 24-hour HepG2 Assay for Cell Cycle Arrest (AID 2282905);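 also: cell cycle arrest scored as ratio of 2N to 4N nuclear DNA content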
Details: imaging, actives raise or lower the signal
Calls of active or inactive are those of the source. The calls were made as follows: active = hit-call score of the fitted dose curve at least 0.9, where 1 is the maximum; inactive = score below 0.9.
Classes used: 1 (yes) for active, 0 (no) for inactive

[[record]]
molecule = "CC1(C)C(C(=O)OC(C#N)c2cccc(Oc3ccccc3)c2)C1(C)C (stereo unspecified)"
label = "0 (no)"

[[record]]
molecule = "CCOC(=O)C(C)OC(=O)c1cc(Oc2ccc(C(F)(F)F)cc2Cl)ccc1[N+](=O)[O-] (stereo unspecified)"
label = "0 (no)"

[[record]]
molecule = "CCOc1cc(C(C)(C)C)ccc1C1COC(c2c(F)cccc2F)=N1 (stereo unspecified)"
label = "0 (no)"

[[record]]
molecule = "O=P(O)(O)CCCl"
label = "0 (no)"

[[record]]
molecule = "CC(C)=CC1C(C(=O)OCc2coc(Cc3ccccc3)c2)C1(C)C (stereo unspecified)"
label = "1 (yes)"

[[record]]
molecule = "O=c1n(Cl)c(=O)n(Cl)c(=O)n1Cl"
label = "0 (no)"

